Values were extracted from ChEMBL document CHEMBL1201862.

Tested on: NCI-H23
Assay: NCI tumour cell line growth inhibition, 48 h
Activity calls are given as the source filed them. No stated cut-off is given here; in the data, active = GI50 up to about 1.1 µM and inactive = higher.
readout: GI50

{"compound": "COC1C(O)C(O[C@H]2CC[C@@]3(C)C(CC[C@@H]4[C@@H]3CC[C@]3(C)[C@@H](C(C)OC5OC(CO)C(O)C(O)C5O)CC[C@]43O)C2)OC(C)C1OC1OC(CO)C(O)C(O)C1O (stereo partly specified)", "measurementTarget": "NCI-H23", "readout": "GI50", "recordedMeasurement": "> 100 µM (inactive)"}
{"compound": "Nc1ccn(C2CCC(CO)O2)c(=S)n1 (stereo unspecified)", "measurementTarget": "NCI-H23", "readout": "GI50", "recordedMeasurement": "> 100 µM (inactive)"}
{"compound": "CCN(C(=O)/C=C/c1ccco1)c1ccccc1", "measurementTarget": "NCI-H23", "readout": "GI50", "recordedMeasurement": "> 100 µM (inactive)"}
{"compound": "CC(C)(C)C1CCC2c3c([nH]c4ncccc34)C3C(=O)N(c4ccccc4)C(=O)C3C2C1 (stereo unspecified)", "measurementTarget": "NCI-H23", "readout": "GI50", "recordedMeasurement": "> 100 µM (inactive)"}
{"compound": "CC(=O)NCCC1CNc2ccccc21 (stereo unspecified)", "measurementTarget": "NCI-H23", "readout": "GI50", "recordedMeasurement": "> 100 µM (inactive)"}
{"compound": "NC1=NC2=C(CCCC2)C(c2cccs2)S1 (stereo unspecified)", "measurementTarget": "NCI-H23", "readout": "GI50", "recordedMeasurement": "> 100 µM (inactive)"}
{"compound": "O=C1CSC2(CC(/C=C/c3cccs3)=NN2c2cccc(S(=O)(=O)O)c2)N1c1nc2ccccc2s1 (stereo unspecified)", "measurementTarget": "NCI-H23", "readout": "GI50", "recordedMeasurement": "42.7 µM (inactive)"}
{"compound": "Cc1cc(NS(=O)(=O)c2ccc(NC(=O)c3cccc4c(Nc5ccc(S(=O)(=O)Nc6cc(C)on6)cc5)c5ccc(Cl)cc5nc34)cc2)no1", "measurementTarget": "NCI-H23", "readout": "GI50", "recordedMeasurement": "45.1 µM (inactive)"}
{"compound": "CC1CCN(CCC(=O)CC(c2ccccc2)c2c(O)c3ccccc3oc2=O)CC1 (stereo unspecified)", "measurementTarget": "NCI-H23", "readout": "GI50", "recordedMeasurement": "> 100 µM (inactive)"}
{"compound": "CSc1ccc(-c2cn3ccsc3n2)c(O)c1", "measurementTarget": "NCI-H23", "readout": "GI50", "recordedMeasurement": "48.3 µM (inactive)"}
{"compound": "CCOC(=O)/C(=C\\NC[C@@H](C)O)c1nc2ccccc2[nH]1", "measurementTarget": "NCI-H23", "readout": "GI50", "recordedMeasurement": "54.5 µM (inactive)"}
{"compound": "N[C@@H](Cc1ccccc1)C(=O)N1CCC[C@@H]1P(=O)(Oc1ccccc1)Oc1ccccc1", "measurementTarget": "NCI-H23", "readout": "GI50", "recordedMeasurement": "> 100 µM (inactive)"}
{"compound": "N#CC(c1ccccc1)(c1ccccc1)[C@@H](c1ccccc1)[C@H](Cc1ccccc1)NS(=O)(=O)c1ccccc1", "measurementTarget": "NCI-H23", "readout": "GI50", "recordedMeasurement": "> 100 µM (inactive)"}
{"compound": "CCOC(=O)C1C(c2ccc(OC)cc2)c2c(nn(-c3ccccc3)c2O)CC1(C)O (stereo unspecified)", "measurementTarget": "NCI-H23", "readout": "GI50", "recordedMeasurement": "43.5 µM (inactive)"}
{"compound": "O=C1c2ccccc2C(=O)c2c1cc(S(=O)(=O)O)c(O)c2O", "measurementTarget": "NCI-H23", "readout": "GI50", "recordedMeasurement": "> 100 µM (inactive)"}
{"compound": "Nc1nnc2n1C(=O)C(C1(C3=Nc4nnc(N)n4C3=O)Cc3ccccc3C1=O)=N2", "measurementTarget": "NCI-H23", "readout": "GI50", "recordedMeasurement": "> 100 µM (inactive)"}
{"compound": "FC(F)(F)C1(C(F)(F)F)OC(Cl)(Cl)C(Cl)(Cl)O1", "measurementTarget": "NCI-H23", "readout": "GI50", "recordedMeasurement": "> 10 µM (inactive)"}
{"compound": "CN(O)C(=O)c1ccccc1", "measurementTarget": "NCI-H23", "readout": "GI50", "recordedMeasurement": "> 100 µM (inactive)"}
{"compound": "O=C(CC(C(=O)O)N1CCOCC1)c1ccccc1 (stereo unspecified)", "measurementTarget": "NCI-H23", "readout": "GI50", "recordedMeasurement": "20.7 µM (inactive)"}
{"compound": "OCCN1CCN(CC/C=C2/c3ccccc3Sc3ccc(Cl)cc32)CC1", "measurementTarget": "NCI-H23", "readout": "GI50", "recordedMeasurement": "15.7 µM (inactive)"}
{"compound": "Cc1cc(/N=C/c2ccc(C#N)cc2)n(-c2ccccc2)n1", "measurementTarget": "NCI-H23", "readout": "GI50", "recordedMeasurement": "56.1 µM (inactive)"}
{"compound": "O=C(/C=C/c1ccc(OCc2ccccc2)c(OCc2ccccc2)c1)OCc1ccccc1", "measurementTarget": "NCI-H23", "readout": "GI50", "recordedMeasurement": "> 100 µM (inactive)"}
{"compound": "Cc1ccc(S(=O)(=O)NC(=O)NC(CC(=O)O)C(=O)O)cc1 (stereo unspecified)", "measurementTarget": "NCI-H23", "readout": "GI50", "recordedMeasurement": "> 100 µM (inactive)"}
{"compound": "NC1=NCCC1(c1ccccc1)c1ccccn1 (stereo unspecified)", "measurementTarget": "NCI-H23", "readout": "GI50", "recordedMeasurement": "> 100 µM (inactive)"}
{"compound": "C=C1C2Oc3ccccc3C1N(c1ccccc1)O2 (stereo unspecified)", "measurementTarget": "NCI-H23", "readout": "GI50", "recordedMeasurement": "> 10 µM (inactive)"}
{"compound": "CC(=O)OCc1cc(=O)n(C)c2c3c4c(cc12)c(C)cc(=O)n4CO3", "measurementTarget": "NCI-H23", "readout": "GI50", "recordedMeasurement": "1.68 µM (inactive)"}
{"compound": "CN1C(=O)C(=O)c2cc3c(c4c2c1cc1ccccc14)OCO3", "measurementTarget": "NCI-H23", "readout": "GI50", "recordedMeasurement": "40.7 µM (inactive)"}
{"compound": "O=c1c(Br)cc2nc3ccccc3sc-2c1Br", "measurementTarget": "NCI-H23", "readout": "GI50", "recordedMeasurement": "29.9 µM (inactive)"}
{"compound": "O=S1(=O)C(c2ccccc2)=C(O)c2ccccc21", "measurementTarget": "NCI-H23", "readout": "GI50", "recordedMeasurement": "> 100 µM (inactive)"}
{"compound": "O=C(/C=C/c1cccc(Oc2ccccc2)c1)NCc1ccc(C(=O)NCCc2ccccc2)cc1", "measurementTarget": "NCI-H23", "readout": "GI50", "recordedMeasurement": "43.7 µM (inactive)"}
{"compound": "CCC(=O)NC(Nc1ccccc1F)(C(F)(F)F)C(F)(F)F", "measurementTarget": "NCI-H23", "readout": "GI50", "recordedMeasurement": "> 100 µM (inactive)"}
{"compound": "COc1ccc(-c2onc(-c3ccc([N+](=O)[O-])cc3)c2C2=NCCCN2)cc1", "measurementTarget": "NCI-H23", "readout": "GI50", "recordedMeasurement": "> 100 µM (inactive)"}
{"compound": "Cc1cc([N+](=O)[O-])c(C)c2c1[nH]c1ccc(Cl)cc12", "measurementTarget": "NCI-H23", "readout": "GI50", "recordedMeasurement": "> 100 µM (inactive)"}
{"compound": "CC1(C)O[C@@H]2[C@@H](COC(C)(C)O[C@H]2C2SCCCS2)O1", "measurementTarget": "NCI-H23", "readout": "GI50", "recordedMeasurement": "> 100 µM (inactive)"}
{"compound": "CCCCCCCCCCNC(=S)OC", "measurementTarget": "NCI-H23", "readout": "GI50", "recordedMeasurement": "> 100 µM (inactive)"}
{"compound": "COc1cc2oc3cc(=O)cc4oc(-c5ccccc5)cc(c2c2c1CCC(c1ccccc1)O2)c43 (stereo unspecified)", "measurementTarget": "NCI-H23", "readout": "GI50", "recordedMeasurement": "62.8 µM (inactive)"}
{"compound": "CN(CCCCN)c1ccc2c(=O)[nH][nH]c(=O)c2c1", "measurementTarget": "NCI-H23", "readout": "GI50", "recordedMeasurement": "2.24 µM (inactive)"}
{"compound": "CC1=C(C(=O)NCc2ccccc2)C(c2ccc(C3C(C(=O)NCc4ccccc4)=C(C)NC(C)=C3C(=O)NCc3ccccc3)cc2)C(C(=O)NCc2ccccc2)=C(C)N1", "measurementTarget": "NCI-H23", "readout": "GI50", "recordedMeasurement": "14.7 µM (inactive)"}
{"compound": "CCOC(=O)/C(C(=O)c1ccc[nH]1)=C1/CCCN1C", "measurementTarget": "NCI-H23", "readout": "GI50", "recordedMeasurement": "> 100 µM (inactive)"}
{"compound": "Nc1nc2c(ncn2Cc2ccccc2CO)c(=O)[nH]1", "measurementTarget": "NCI-H23", "readout": "GI50", "recordedMeasurement": "> 100 µM (inactive)"}
{"compound": "C=C1[C@H](OCC(C)C)[C@@H](OC(=O)C(C)CC)[C@@H](O)C(C)(C)/C=C/[C@H](C)C(=O)[C@@]2(O)C[C@H](C)[C@H](O)[C@@H]2[C@H]1OC(=O)C(C)CC (stereo partly specified)", "measurementTarget": "NCI-H23", "readout": "GI50", "recordedMeasurement": "5.2 µM (inactive)"}
